tested on: LYN; conditions: concentration: 1 μM, replicates: in singlicate; n = 1;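 also: KINOMEscan kinase panel screen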
Reported metric: %Inh (%)
Provide only the numeric value, understood in %.

## Task Quick check: %Inh of CCOc1nccc(-c2c(-c3ccc(F)cc3)ncn2C2CCNCC2)n1 ?
## Result 12

## Task Fill in the blank: the reported %Inh of CN(C)c1ncnc2nc[nH]c12 is ____.
## Result 0

## Task Any idea what %Inh was measured for CN(C)CCOc1ccc(-c2cc(-c3ccc(Cl)c(O)c3)c(-c3ccncc3)[nH]2)cc1.Cl.Cl ?
## Result 28

## Task Given the entry O=C(O)C(F)(F)F.O=c1[nH]ccc2nc(N[C@@H]3CCNC3)nc(Nc3ccc4c(c3)S(=O)(=O)CC4)c12 , report its measured %Inh.
## Result 7

## Task I have this compound here, O=C(Nc1n[nH]c2nc(-c3cccc(O)c3)ccc12)C1CC1 , and I need its recorded %Inh.
## Result 5

## Task Param item = Cc1cc(-c2c(-c3ccc(F)cc3)ncn2CCCN2CCOCC2)nc(N)n1 ; retrieve measured %Inh.
## Result 17

## Task Any idea what its %Inh is? The compound is Cc1cc(-c2ccnc(Nc3cccc(C#N)c3)n2)cc(C)c1O
## Result 20

## Task Could you share which %Inh value was measured for COc1ccc(C)c(Nc2ccnc(Nc3ccc(-c4cnc[nH]4)cc3)n2)c1.Cl ?
## Result 30

## Task Tell me the measured %Inh of Cc1cccc(Nc2nc(NCCN)ncc2C(N)=O)c1 , please.
## Result 3

## Task So what does the record say about %Inh for COc1cccc(-c2nc(-c3ccccc3)[nH]c2-c2ccncc2)c1 ?
## Result 0

## Task Which value of %Inh has been reported for NCCC(NC(=O)c1cc(Br)c(-c2ccnc3[nH]ccc23)s1)c1ccccc1.O=C(O)C(F)(F)F.O=C(O)C(F)(F)F (stereo not drawn) in the records?
## Result 7

## Task Suppose we examine the compound CC(C)NCC(Cc1ccccc1)NC(=O)c1cc(Br)c(-c2ccnc3[nH]ccc23)s1.Cl.Cl (stereo not drawn) ; what %Inh value has been reported?
## Result 0

## Task Query: %Inh; subject: COc1cccc(C2=C(Nc3cccc(O)c3)C(=O)NC2=O)c1
## Result 24

## Task What does the record list as %Inh for Cl.Cl.NC(CNC(=O)c1cc(Br)c(-c2ccnc3[nH]ccc23)s1)c1ccccc1 (stereo not drawn) ?
## Result 0

## Task What measured %Inh goes with CCn1cnc2c(NCc3ccccc3)ncnc21 ?
## Result 0

## Task // %Inh lookup, key: N#CC1(c2cccc(C(=O)Nc3cccc(Oc4ccc5nc(NC(=O)C6CC6)sc5n4)c3)c2)CC1
## Result 91.4

## Task # input compound: CCn1c(-c2nonc2N)nc2c(-c3ccccc3)ncc(OCCCN)c21.O=C(O)C(F)(F)F.O=C(O)C(F)(F)F ; wanted: its %Inh
## Result 0

## Task What value of %Inh has been recorded for this entry: Fc1cc(Cl)ccc1Nc1ccnc2cc(-c3ccc(CN4CCOCC4)o3)ccc12
## Result 76

* * *

Would you kindly list %Inh for each of these compounds?
system: DAPK3; details: concentration: 1 μM, replicates: in singlicate; n = 1

## Task Please provide the recorded %Inh for CCn1cnc2c(NCc3ccccc3)ncnc21 , tested on DAPK3.
## Result 11%

## Task Give %Inh (DAPK3) of the following compound: COc1cc(Nc2nccc(N3CCC(NS(=O)(=O)c4ccc(NC(C)=O)cc4)CC3)n2)cc(OC)c1OC
## Result 8%

## Task Query %Inh on DAPK3 for COc1cccc(-c2nc(-c3ccccc3)[nH]c2-c2ccncc2)c1
## Result 19%

## Task Any idea what %Inh came out for CCOc1nccc(-c2c(-c3ccc(F)cc3)ncn2C2CCNCC2)n1 on DAPK3?
## Result 0%

## Task Write down the reported %Inh of Cc1ccc(O)cc1Nc1ccnc2ccc(C(C)(C)C)cc12 , test system: DAPK3.
## Result 7%

## Task Write down the reported %Inh of Fc1cc(Cl)ccc1Nc1ccnc2cc(-c3ccc(CN4CCSCC4)o3)ccc12 , test system: DAPK3.
## Result 11%

## Task # returns recorded %Inh (system: DAPK3) for Cl.N#CCc1ccc(Nc2nccc(Nc3ccc(Oc4ccccc4)cc3)n2)cc1
## Result 40%

## Task Request body: readout %Inh, system DAPK3, query CC(C)NCC(Cc1ccccc1)NC(=O)c1cc(Br)c(-c2ccnc3[nH]ccc23)s1.Cl.Cl (stereo not drawn) . Return the value.
## Result 37%

## Task Query %Inh on DAPK3 for Cc1nn2c(=O)cc(N3CCO[C@H](C)C3)nc2n1Cc1cccc(Cl)c1Cl
## Result 94.7%

* * *

tested on: DAPK2; conditions: concentration: 1 μM, replicates: in singlicate; n = 1
Please go through the items and note down their %Inh.
The answer is to be given in %; state only the numeric part.

## Task What %Inh value was documented for this compound, Cc1ccccc1CC(=O)N1CCc2cc(-c3cn(C)c4ncnc(N)c34)ccc21 ?
## Result 0

## Task Quick check: %Inh of CCNc1nccc(-c2c(-c3ccc(F)cc3)ncn2C2CCN(C)CC2)n1 ?
## Result 15

## Task Recorded %Inh for Cc1nn2c(=O)cc(N3CCO[C@H](C)C3)nc2n1Cc1cccc(Cl)c1Cl , please?
## Result 54

## Task What value of %Inh has been reported for the following compound? Cc1ccc(O)cc1Nc1ccnc2cc(-c3ccc(CN4CCCCC4)o3)ccc12
## Result 3

## Task Quick one: %Inh for Cl.O=C(Nc1ccc(Oc2ccc3[nH]c(NC(=O)c4ccco4)nc3c2)cc1)Nc1cc(C(F)(F)F)ccc1F ?
## Result 0

## Task Give the measured %Inh of CN(C)c1ncnc2nc[nH]c12 .
## Result 3

## Task Bench note: what %Inh did O=C(Nc1c(F)cccc1F)c1cc(C(=O)c2ccccc2F)c[nH]1 show?
## Result 4

## Task Entry NCCC(NC(=O)c1cc(Br)c(-c2ccnc3[nH]ccc23)s1)c1ccccc1.O=C(O)C(F)(F)F.O=C(O)C(F)(F)F (stereo not drawn) has what %Inh?
## Result 28

## Task Would you mind telling me what %Inh value was observed for CC(=O)Nc1cn2nc(Oc3cccc(NC(=O)c4cccc(C(F)(F)F)c4)c3)ccc2n1 ?
## Result 1

## Task Please report the recorded %Inh for Fc1cc(Cl)ccc1Nc1ccnc2cc(-c3ccc(CN4CCOCC4)o3)ccc12 .
## Result 0

## Task Could you tell me which %Inh is on file for O=C(Nc1n[nH]c2cc(-c3cccs3)ccc12)C1CC1 ?
## Result 2

## Task What does the record list as %Inh for COc1cccc(C2=C(Nc3cccc(O)c3)C(=O)NC2=O)c1 ?
## Result 0

## Task Name the recorded %Inh for N#Cc1cnc2cc(-c3cnc(CNCCN4CCOCC4)s3)ccc2c1Nc1ccc(Oc2ccccc2)cc1 .
## Result 0

## Task Given CCOc1nccc(-c2c(-c3ccc(F)cc3)ncn2C2CCNCC2)n1 , state its recorded %Inh.
## Result 0

## Task Item CC(C)c1nc(-c2cccc(NS(=O)(=O)c3c(F)cccc3F)c2)c(-c2ccnc(Nc3ccc(N4CCOCC4)nc3)n2)s1.Cl has what recorded %Inh?
## Result 0

## Task Please look up its %Inh: Cc1ccc(-c2ccc3occ(-c4ccc(S(C)=O)cc4)c3c2)nn1 (stereo not drawn)
## Result 0

## Task Name the reported %Inh value associated with the compound COc1ccc(C2=C(Nc3cccc(O)c3)C(=O)NC2=O)cc1
## Result 0

## Task Quick one: %Inh for CN(C)CCOc1ccc(-c2cc(-c3ccc(Cl)c(O)c3)c(-c3ccncc3)[nH]2)cc1.Cl.Cl ?
## Result 0

* * *

tested on: WEE1; details: concentration: 1 μM, replicates: in singlicate; n = 1
Reported metric: %Inh (%)
Report only the number, with the unit % understood.

## Task API: value(readout= %Inh, system= WEE1, query= CC(C)(C)c1ccc(C(=O)Nc2cn3cc(-n4ccnc4)ccc3n2)cc1 )
## Result 0

## Task %Inh of CCOc1nccc(-c2c(-c3ccc(F)cc3)ncn2C2CCNCC2)n1 on WEE1?
## Result 0

## Task Fill in the recorded %Inh for this compound, with WEE1 as test system: CS(=O)(=O)c1cccc(CNc2nc(Nc3ccc4c(c3)CCC(=O)N4)ncc2C(F)(F)F)c1
## Result 0

## Task Query the reported %Inh for WEE1; item: Cc1ccc(O)cc1Nc1ccnc2cc(-c3ccc(CN4CCCCC4)o3)ccc12
## Result 5

## Task Value wanted: %Inh (WEE1) of entry Fc1cc(Cl)ccc1Nc1ccnc2cc(-c3ccc(CN4CCOCC4)o3)ccc12
## Result 0

## Task // fetch WEE1 %Inh for O=C(O)C(F)(F)F.O=c1[nH]ccc2nc(N[C@@H]3CCNC3)nc(Nc3cc(Cl)cc(Cl)c3)c12
## Result 0

## Task Recall the recorded %Inh for Cc1nn2c(=O)cc(N3CCO[C@H](C)C3)nc2n1Cc1cccc(Cl)c1Cl with WEE1 and state it.
## Result 0

## Task Recorded %Inh for CC(=O)Nc1cn2nc(Oc3cccc(NC(=O)c4cccc(C(F)(F)F)c4)c3)ccc2n1 with WEE1, please?
## Result 21

## Task So what %Inh did COc1cccc(NC(=O)NCCNc2ccnc(Nc3ccc(F)cc3)n2)c1 get with WEE1?
## Result 31
